The following compounds are shown together with reported inhibition at 1 µM values.
target: recombinant rat PAI-1 (Rattus norvegicus, UniProt P20961); assay: biochemical; conditions: read-out: Inhibition Rate of PAI-1 Activity (%)
Sequence (P20961 24-402): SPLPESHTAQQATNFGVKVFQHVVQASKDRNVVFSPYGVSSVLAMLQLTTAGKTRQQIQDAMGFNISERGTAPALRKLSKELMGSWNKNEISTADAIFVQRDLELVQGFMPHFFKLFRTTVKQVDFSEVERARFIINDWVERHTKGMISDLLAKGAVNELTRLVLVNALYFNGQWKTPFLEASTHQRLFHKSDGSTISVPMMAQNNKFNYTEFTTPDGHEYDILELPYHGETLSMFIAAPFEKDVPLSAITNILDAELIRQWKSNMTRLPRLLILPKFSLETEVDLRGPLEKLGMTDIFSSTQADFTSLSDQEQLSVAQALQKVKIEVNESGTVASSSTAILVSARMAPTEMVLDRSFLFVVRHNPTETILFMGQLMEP
Express your answer in %, writing the number without its unit.

For orientation, consider the following solved cases.
CC(C)(Oc1cccc(-c2ccc(OC(F)(F)F)cc2)c1OCc1ccc(C(C)(C)C)cc1)C(=O)O yielded inhibition at 1 µM of 16

CC(C)(C)c1ccc(Oc2cc(Oc3ccc(OC(F)(F)F)cc3)ccc2CCC(=O)O)cc1 yielded inhibition at 1 µM of 0

CCC(CC)Oc1ccc(N(CCCc2ccccc2)C(=O)C(=O)O)cc1-c1ccc(OC(F)(F)F)cc1 yielded inhibition at 1 µM of 13

---
O=C(O)CCc1c(Oc2ccc(OC(F)(F)F)cc2)cccc1Oc1ccc(OC(F)(F)F)cc1 yielded inhibition at 1 µM of 10

CC(C)(C)c1ccc(COc2ccc(-c3ccc(OC(F)(F)F)cc3)cc2OCC(=O)O)cc1 yielded inhibition at 1 µM of 6

CC(C)(C)c1ccc(CN(C(=O)C(=O)O)c2cc(-c3ccc(OC(F)(F)F)cc3)cc(C(F)(F)F)c2)cc1 yielded inhibition at 1 µM of 22

CC(C)(C)c1ccc(CN(C(=O)C(=O)O)c2cccc(Oc3ccc(OC(F)(F)F)cc3)c2)cc1 yielded inhibition at 1 µM of 6

CCN(CC)c1ccc(N(Cc2ccc(C(C)(C)C)cc2)C(=O)C(=O)O)c(-c2ccc(OC(F)(F)F)cc2)c1 yielded inhibition at 1 µM of 12

CCCCCOc1ccc(-c2ccc(OC(F)(F)F)cc2)cc1N(Cc1ccc(C(C)(C)C)cc1)C(=O)C(=O)O yielded inhibition at 1 µM of 39
